The measured values listed here are drawn from the Immune Epitope Database (IEDB).

- TARGET ENTITY: HLA-A*03:01
- ASSAY COMMENT: IEDB peptide-MHC binding, purified MHC/direct/fluorescence; filed as Kd, often an IC50 or EC50 that approximates it; bounds were set here for any values at or beyond the usual limits of such assays
- TEST PARAMETERS: source organism: Choclo virus

| CHAIN SEQUENCE | Kd |
| --- | --- |
| LRYGNVLDV | ≥ 20 µM |

###

- TARGET ENTITY: HLA-B*57:01
- ASSAY COMMENT: IEDB peptide-MHC binding, purified MHC/direct/fluorescence; filed as Kd, often an IC50 or EC50 that approximates it; bounds were set here for any values at or beyond the usual limits of such assays
- TEST PARAMETERS: source organism: Bacillus anthracis str. A0488
pKd: −log10 of the molar value.
TEST READOUT: pKd

| CHAIN SEQUENCE | RECORDED VALUE |
| --- | --- |
| IARQYEQEM | 6.29 |

###

- TARGET ENTITY: HLA-A*26:01
- ASSAY COMMENT: IEDB peptide-MHC binding, purified MHC/competitive/fluorescence; filed as Kd, often an IC50 or EC50 that approximates it; bounds were set here for any values at or beyond the usual limits of such assays
- TEST PARAMETERS: source organism: Kurkino virus
pKd: −log10 of the molar value.
TEST READOUT: pKd

| CHAIN SEQUENCE | RECORDED VALUE |
| --- | --- |
| RRAYSGKQY | ≤ 4.70 |

###

Reported Kd values for the following sequences.
- TARGET ENTITY: HLA-A*02:03
- ASSAY COMMENT: IEDB peptide-MHC binding, purified MHC/direct/fluorescence; filed as Kd, often an IC50 or EC50 that approximates it; bounds were set here for any values at or beyond the usual limits of such assays
- TEST PARAMETERS: source organism: Zaire ebolavirus

| CHAIN SEQUENCE | Kd |
| --- | --- |
| HLPGFGTAF | ≥ 20 µM |
| LEARVNLSV | ≥ 20 µM |
| LSDLCNFLV | ≥ 20 µM |

###

- TARGET ENTITY: HLA-B*27:05
- ASSAY COMMENT: IEDB peptide-MHC binding, purified MHC/direct/fluorescence; filed as Kd, often an IC50 or EC50 that approximates it; bounds were set here for any values at or beyond the usual limits of such assays
- TEST PARAMETERS: source organism: Camelpox virus M-96

| CHAIN SEQUENCE | Kd |
| --- | --- |
| SQEDNHFSL | ≥ 20 µM |

###

- TARGET ENTITY: HLA-C*08:02
- ASSAY COMMENT: IEDB peptide-MHC binding, purified MHC/direct/fluorescence; filed as Kd, often an IC50 or EC50 that approximates it; bounds were set here for any values at or beyond the usual limits of such assays
- TEST PARAMETERS: source organism: Giardia lamblia ATCC 50803
pKd: −log10 of the molar value.
Reported pKd values for the following sequences.

| CHAIN SEQUENCE | pKd |
| --- | --- |
| YMRERFEPM | ≤ 4.70 |
| MTDVDLNYY | ≤ 4.70 |

###

Reported pKd values for the following sequences.
- TARGET ENTITY: HLA-A*31:01
- ASSAY COMMENT: IEDB peptide-MHC binding, purified MHC/competitive/radioactivity; filed as Kd, often an IC50 or EC50 that approximates it; bounds were set here for any values at or beyond the usual limits of such assays
- TEST PARAMETERS: source organism: SARS coronavirus Tor2
pKd: −log10 of the molar value.

| CHAIN SEQUENCE | QUAL | pKd |
| --- | --- | --- |
| VVQRCASNK | = | 5.08 |
| SVKSFEIDK | = | 5.95 |
| SLRCGACIRR | = | 7.79 |
| MQTMLFTMLR | = | 8.01 |
| SQASSRSSSR | = | 6.33 |
| AMDEFIQRY | ≤ | 4.11 |
| FLYLYALIY | = | 4.77 |
| QQVVDADSK | ≤ | 4.11 |
| VVSTGYHFR | = | 8.77 |
| ATNNVFRLK | = | 8.59 |
| NAFNCTFEY | = | 4.94 |
| QMAPVSAMVR | = | 5.99 |
| ASGNLLLDK | = | 4.87 |
| TAFQHQNSKK | ≤ | 4.27 |
| LLFQLCTFTK | = | 6.71 |
| AVHECFVKR | = | 7.41 |
| IIMRCWLCWK | = | 7.84 |
| RLISMMGFK | = | 6.98 |
| SASAFFGMSR | = | 8.02 |
| AQPLPQRQK | ≤ | 4.27 |
| LFCLLNRYFR | = | 7.89 |
| NQLESKVSGK | ≤ | 4.37 |
| MSYYCKSHK | = | 7.72 |
